From: patent US9249378B2

test: Solvent vapor pressure at 20° C.
Answer each item with its documented Solvent Vapor Pressure at 20° C..
One number for each entry, in torr.

Worked set:
{"molecule": "CC(C)COC(=O)CC(C)O (stereo not drawn) [i-butyl 3-hydroxybutyrate]", "test_readout": "Solvent Vapor Pressure at 20° C.", "value_reported": 0.08}
{"molecule": "OCc1ccccc1", "test_readout": "Solvent Vapor Pressure at 20° C.", "value_reported": 0.076}
{"molecule": "CCC(C)OC(=O)CC(C)O (stereo not drawn) [2-butyl 3-hydroxybutyrate]", "test_readout": "Solvent Vapor Pressure at 20° C.", "value_reported": 0.098}
{"molecule": "CCOCCOCCO", "test_readout": "Solvent Vapor Pressure at 20° C.", "value_reported": 0.12}
{"molecule": "CCCCOC(=O)CC(C)O (stereo not drawn) [n-butyl 3-hydroxybutyrate]", "test_readout": "Solvent Vapor Pressure at 20° C.", "value_reported": 0.06}

[ask] Recall and state the measured Solvent Vapor Pressure at 20° C. for CC(O)CC(=O)OC(C)C (stereo not drawn) [i-propyl 3-hydroxybutyrate, isopropyl 3-hydroxybutyrate] .
[reply] 0.17
